tested-system: GST–PPARα (ligand binding domain, TR-FRET) (Homo sapiens)
Sequence (Q07869 196-468 limits assumed): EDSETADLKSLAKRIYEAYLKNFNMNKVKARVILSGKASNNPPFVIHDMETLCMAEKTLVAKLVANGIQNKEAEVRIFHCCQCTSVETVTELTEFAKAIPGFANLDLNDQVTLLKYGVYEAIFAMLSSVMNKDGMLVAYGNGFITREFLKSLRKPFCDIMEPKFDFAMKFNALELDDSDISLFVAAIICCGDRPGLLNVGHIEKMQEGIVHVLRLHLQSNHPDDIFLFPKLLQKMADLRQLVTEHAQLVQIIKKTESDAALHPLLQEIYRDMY
test-summary: TR-FRET cofactor peptide recruitment
measurement-name: EC50 (nM)
Numbers only, in nM.

Inquiry: Report EC50 for Cc1oc(-c2ccccc2)nc1CCOc1ccc(CC2SC(=O)NC2=O)c2sccc12 (stereo not shown) please.
Reply text: 1050

Data provenance is paper PMC3504387.
